Please consider the recorded MIC for Haemophilus influenzae ATCC 49247 in what follows.

The cases that follow already have their MIC on record.
{"Compound": "O=c1c2ncoc2c2cc(F)c(-c3ccc(C(F)(F)F)nc3)cc2n1C1CC1 [Compound 60]", "MIC": "1 to 10 µg/mL"}
{"Compound": "Cc1nc2c(=O)n(C3CC3)c3cc(N4CCC(O)C4)c(F)cc3c2o1 (stereo not shown) [Compound 53]", "MIC": "1 to 10 µg/mL"}
{"Compound": "Cc1c(-c2ccc3[nH]nnc3c2)ccc2c3ocnc3c(=O)n(C3CC3)c12 [Compound 44]", "MIC": "> 100 µg/mL"}
{"Compound": "Cc1nc2c(=O)n3c4c(c(N5CC[C@H](CN)C5)c(F)cc4c2o1)OC[C@@H]3C [Compound 89]", "MIC": "1 to 10 µg/mL"}
{"Compound": "Cc1c(-c2cc(F)c(N)cc2F)ccc2c3scnc3c(=O)n(C3CC3)c12 [Compound 108]", "MIC": "< 1 µg/mL"}

Please give MIC for each item listed below.
1. NCC1CCN(c2nc3c(cc2F)c2ocnc2c(=O)n3C2CC2)C1 (stereo not shown) [Compound 81]
2. Cc1nc2c(=O)n(C3CC3)c3cc(N4CCC(C(C)N)C4)c(F)cc3c2o1 (stereo not shown) [Compound 54]
3. Cc1nc2c(=O)n(C3CC3)c3c(C)c(-c4cc(F)c(N)cc4F)ccc3c2o1 [Compound 4]
4. Cc1nc2c(=O)n(C3CC3)c3cc(-c4ccc(CN)c(F)c4)c(F)cc3c2o1 [Compound 76]
5. CCn1c(=O)c2ncoc2c2cc(F)c(-c3cc(F)c(N)cc3F)c(C)c21 [Compound 104]
6. Cc1c(-c2cc(F)c(N)cc2F)ccc2c3oc(CN)nc3c(=O)n(C3CC3)c12 [Compound 100]
7. Cc1c(-c2ccc3nonc3c2)ccc2c3ocnc3c(=O)n(C3CC3)c12 [Compound 46]
8. Cc1nc2c(=O)n(C3CC3)c3nc(-c4cc(F)c(N)cc4F)c(F)cc3c2o1 [Compound 86]

["1 to 10 µg/mL", "1 to 10 µg/mL", "< 1 µg/mL", "1 to 10 µg/mL", "10 to 100 µg/mL", "< 1 µg/mL", "> 100 µg/mL", "10 to 100 µg/mL"]

Please give MIC for each item listed below.
1. CN[C@H](CC(C)C)C(=O)N[C@H]1C(=O)N[C@@H](CC(N)=O)C(=O)N[C@H]2C(=O)N[C@H]3C(=O)N[C@H](C(=O)N[C@H](C(=O)O)c4cc(O)cc(O)c4-c4cc3ccc4O)[C@H](O)c3ccc(c(Cl)c3)Oc3cc2cc(c3O[C@@H]2O[C@H](CO)[C@@H](O)[C@H](O)[C@H]2O[C@H]2C[C@](C)(N)[C@H](O)[C@H](C)O2)Oc2ccc(cc2Cl)[C@H]1O [Vancomycin, reference compound]
2. Nc1ncc(-c2cc3c(cc2F)c2ocnc2c(=O)n3C2CC2)cn1 [Compound 62]
3. N#Cc1c(F)cc(-c2cc3c(cc2F)c2ocnc2c(=O)n3C2CC2)cc1F [Compound 65]
4. CCn1c(=O)c2ncoc2c2cc(F)c(-c3ccc(N)c(F)c3)c(C)c21 [Compound 107]

1: 10 to 100 µg/mL; 2: 1 to 10 µg/mL; 3: 10 to 100 µg/mL; 4: > 100 µg/mL

Please give MIC for each item listed below.
1. Cc1nc2c(=O)n(C3CC3)c3c(C)c(-c4ccc(C(=O)O)cc4)ccc3c2o1 [Compound 8]
2. Cc1nc2c(=O)n(C3CC3)c3cc(-c4ccc5[nH]ncc5c4)c(F)cc3c2o1 [Compound 73]
3. Cc1nc2c(=O)n(C3CC3)c3cc(-c4ccc(C=O)cc4)c(F)cc3c2o1 [Compound 72]
4. Cc1nc2c(=O)n(C3CC3)c3c(C)c(-c4ccc(C(C)(C)N)cc4)ccc3c2o1 [Compound 28]
5. Cc1nc2c(=O)n(C3CC3)c3c(C)c(-c4cn[nH]c4)ccc3c2o1 [Compound 29]
6. Cc1nc2c(=O)n(C3CC3)c3cc(N4CCC(C)(N)CC4)c(F)cc3c2o1 [Compound 55]

1 to 10 µg/mL
1 to 10 µg/mL
1 to 10 µg/mL
1 to 10 µg/mL
1 to 10 µg/mL
1 to 10 µg/mL

Please give MIC for each item listed below.
1. Cc1nc2c(=O)n(C3CC3)c3c(C)c(-c4cnc(N)nc4)ccc3c2o1 [Compound 16]
2. Cc1nc2c(=O)n(C3CC3)c3c(C)c(-c4ccc(N)nc4)ccc3c2o1 [Compound 23]

1: 10 to 100 µg/mL; 2: 1 to 10 µg/mL
